Origin of the recorded values: patent US11214803B2

Below: a set of entries, each annotated with reported Liver weight.
- test_summary: Tolerability in Balb/c mice, body and organ weights (Example 10)
- Format: in vivo
- assay_setup: 50 mg/kg subcutaneously twice a week for four weeks, end of study
Strand notation (5' to 3'): a small letter for the sugar, then the base; units joined by * are phosphorothioate-linked, units joined directly phosphodiester-linked; [ ] holds rarer units or linkages, { } end groups; capitals alone tell only the bases. k = constrained ethyl (cEt); [5mC] = 5-methylcytosine; d = 2'-deoxy (DNA)
Numeric answer only, unit g assumed.

715609 (kT*kG*kT*dG*dT*dA*dG*dG*d[5mC]*dT*dG*dA*d[5mC]*kT*kT*kA; antisense) [compound 715609]; 2.64
715480 (kG*kG*kA*dA*dA*d[5mC]*d[5mC]*dA*dT*dT*dA*dT*dT*kA*k[5mC]*kT; antisense) [compound 715480]; 1.64

Next substance, please.
Ask: # query: Liver weight of entry 715593 (kA*kT*kT*dT*d[5mC]*dT*dT*dT*dG*dG*d[5mC]*dA*dG*kA*kG*kA; antisense) [compound 715593]
Result: 1.12
